Target: human chemokine receptor 2 isoform B (Homo sapiens)
Assay: Calcium mobilization assay
Conditions: Ca mobilization assay for CCR2; CHOK1-CCR2B-A5 cells; antagonist activity against 20 nM MCP-1; FLIPR, Fluo-4
I'd be grateful if you could share measured IC50 for these entries.
Express your answer in µM, writing the number without its unit.

## Task Tell me its IC50 given C[C@H]1C(=O)N(C[C@@H](O)CN2CCC3(CC3)[C@H](O)C2)CCN1c1ccc(Cl)c(Cl)c1 [Example 99] as the entry.
## Result 0.008

## Task Tell me its IC50 given CC1C(=O)N(CCCN2CCCCC2)CCN1c1cccc(C(F)(F)F)c1 (stereo not shown) [Example 51] as the entry.
## Result 0.19

## Task Tell me its IC50 given COC(=O)[C@H](CCN1CCC2(CC2)[C@H](O)C1)N1C[C@@H](C)N(c2ccc(Cl)c(Cl)c2)CCC1=O [Example 65] as the entry.
## Result 0.016

## Task Tell me its IC50 given CC1C(=O)N(C(CCN2CCC3(CC3)[C@H](O)C2)C(=O)N(C)C)CCN1c1cccc(OC(F)(F)F)c1 (stereo partly shown) [Example 50] as the entry.
## Result 0.03

----------
Target: human chemokine receptor 2 isoform B (Homo sapiens, UniProt P41597)
Construct: host or cells: CHOK1-CCR2B-A5 (CHO-K1) cells
Test: Calcium mobilization assay
Type: cell-based
Conditions: Ca mobilization assay for CCR2; CHOK1-CCR2B-A5 cells; antagonist activity against 20 nM MCP-1; FLIPR, Fluo-4
I'd be grateful if you could share measured IC50 for these entries.
Express your answer in nM, writing the number without its unit.

## Task Tell me its IC50 given COC(=O)C(CCN1CCC2(CC2)[C@H](O)C1)N1CCN(c2cccc(C(F)(F)F)c2)C(C)C1=O (some centres unmarked) as the entry.
## Result 10

## Task Tell me its IC50 given O=C1CCN(c2ccc(Cl)c(Cl)c2)CCN1[C@H](CO)CCN1CCC2(CC2)[C@H](O)C1 as the entry.
## Result 10

## Task Tell me its IC50 given COCC(CCCN1CCC2(CC2)[C@H](O)C1)N1CCN(c2cccc(C(F)(F)F)c2)CCC1=O (some centres unmarked) as the entry.
## Result 400

## Task Tell me its IC50 given C[C@H]1C(=O)N(CCCN2CCC3(CC3)[C@H](O)C2)CCN1c1ccc(-c2ccccc2)cc1 as the entry.
## Result 318

## Task Tell me its IC50 given C[C@H]1C(=O)N(CCCN2CCCCC2)CCN1c1ccc(Cl)c(Cl)c1 as the entry.
## Result 306

## Task Tell me its IC50 given C[C@H]1C(=O)N(CCCN2CCCCC2)CCN1c1cccc(OC(F)(F)F)c1 as the entry.
## Result 180

## Task Tell me its IC50 given COC(=O)[C@H](CCN1CCC2(CC2)[C@H](O)C1)N1CCN(c2ccc(Cl)c(Cl)c2)CCC1=O as the entry.
## Result 40

## Task Tell me its IC50 given COCC(CCN1CCC2(CC2)[C@H](O)C1)N1CCN(c2cccc(C(F)(F)F)c2)C(C)C1=O (some centres unmarked) as the entry.
## Result 10

----------
I'd be grateful if you could share measured IC50 for these entries.
Target: human chemokine receptor 2 isoform B (Homo sapiens, UniProt P41597)
Experiment: Calcium mobilization assay
Conditions: Ca mobilization assay for CCR2; CHOK1-CCR2B-A5 cells; antagonist activity against 20 nM MCP-1; FLIPR, Fluo-4
Express your answer in nM, writing the number without its unit.

## Task Tell me its IC50 given O=C1CCN(c2cccc(C(F)(F)F)c2)CCN1C(CO)CCCN1CCC2(CC2)[C@H](O)C1 (stereo partly shown) [Example 27] as the entry.
## Result 70

## Task Tell me its IC50 given COC[C@H](CCN1CCC2(CC2)[C@H](O)C1)N1CCN(c2cccc(C(F)(F)F)c2)CCC1=O [Example 23] as the entry.
## Result 10

## Task Tell me its IC50 given C[C@H]1C[C@H](O)CN(CCC(C(=O)N(C)C)N2CCN(c3cccc(C(F)(F)F)c3)CCC2=O)C1 (stereo partly shown) [Example 18] as the entry.
## Result 650

## Task Tell me its IC50 given O=C1CCN(c2cccc(OC(F)(F)F)c2)CCN1C(CO)CCCN1CCC2(CC2)[C@H](O)C1 (stereo partly shown) [Example 32] as the entry.
## Result 140

----------
Target: human chemokine receptor 2 isoform B (Homo sapiens, UniProt P41597)
Assay: Calcium mobilization assay
Settings: Ca mobilization assay for CCR2; CHOK1-CCR2B-A5 cells; antagonist activity against 20 nM MCP-1; FLIPR, Fluo-4
recorded-metric: IC50 (nM)
Express your answer in nM, writing the number without its unit.

## Task Tell me its IC50 given C[C@H]1C(=O)N(C[C@H](O)CCN2CCC3(CC3)[C@H](O)C2)CCN1c1ccc(Cl)c(Cl)c1 as the entry.
## Result 203

## Task Tell me its IC50 given CC1CN(C(CO)CCN2CCC3(CC3)[C@H](O)C2)C(=O)CCN1c1ccc(Cl)c(Cl)c1 (stereo in doubt) as the entry.
## Result 11

## Task Tell me its IC50 given C[C@H]1C(=O)N(CCCN2CCC3(CC3)[C@H](O)C2)CCN1c1cccc(OC(F)(F)F)c1 as the entry.
## Result 10

## Task Tell me its IC50 given CC1C(=O)N(CCCN2CCC3(CC3)[C@H](O)C2)CCN1c1cccc(OC(F)(F)F)c1 (some centres unmarked) as the entry.
## Result 20

## Task Tell me its IC50 given CN(C(=O)[C@H](CCN1CCC2(CC2)[C@H](O)C1)N1CCN(c2ccc(Cl)c(Cl)c2)CCC1=O)C1CC1 as the entry.
## Result 330

----------
Target: human chemokine receptor 2 isoform B (Homo sapiens)
Sequence (P41597 1-360 isoform P41597-2): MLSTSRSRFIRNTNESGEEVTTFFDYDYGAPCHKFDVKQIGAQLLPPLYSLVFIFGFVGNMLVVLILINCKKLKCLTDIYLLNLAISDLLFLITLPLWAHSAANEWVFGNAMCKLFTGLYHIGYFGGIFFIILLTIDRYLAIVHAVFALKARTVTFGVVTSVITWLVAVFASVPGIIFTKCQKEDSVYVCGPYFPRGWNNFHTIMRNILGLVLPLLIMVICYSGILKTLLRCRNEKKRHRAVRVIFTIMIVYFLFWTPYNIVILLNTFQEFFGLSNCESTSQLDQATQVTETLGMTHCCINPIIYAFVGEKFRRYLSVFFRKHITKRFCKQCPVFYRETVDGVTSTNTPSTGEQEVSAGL
Test: Calcium mobilization assay
Settings: Ca mobilization assay for CCR2; CHOK1-CCR2B-A5 cells; antagonist activity against 20 nM MCP-1; FLIPR, Fluo-4
recorded-metric: IC50 (µM)
Express your answer in µM, writing the number without its unit.

## Task Tell me its IC50 given COC(=O)C(CCCN1CCC(C)(O)CC1)N1CCN(c2cccc(C(F)(F)F)c2)CCC1=O (racemic) [Example 29] as the entry.
## Result 0.64

## Task Tell me its IC50 given CC1C(=O)N(CCCN2CCCCC2)CCN1c1ccc(Cl)c(C(F)(F)F)c1 (stereo not shown) [Example 70] as the entry.
## Result 0.579

## Task Tell me its IC50 given CC1C(=O)N(CC[C@H](O)CN2CCC3(CC3)[C@H](O)C2)CCN1c1ccc(Cl)c(Cl)c1 (stereo partly shown) [Example 107] as the entry.
## Result 0.015

## Task Tell me its IC50 given COC(=O)[C@@H](CCN1CCC2(CC2)[C@H](O)C1)N1CCN(c2cccc(C(F)(F)F)c2)CCC1=O [Example 8] as the entry.
## Result 0.6

## Task Tell me its IC50 given CC1C(=O)N(C(CO)CCN2CCC3(CC3)[C@H](O)C2)CCN1c1cccc(C(F)(F)F)c1 (stereo partly shown) [Example 55] as the entry.
## Result 0.01

## Task Tell me its IC50 given COC(=O)[C@H](CCN1CCC2(CC2)[C@H](O)C1)N1CC(C)N(c2ccc(Cl)c(Cl)c2)CCC1=O (mixture of isomers) [Example 67] as the entry.
## Result 0.052

## Task Tell me its IC50 given COC(=O)[C@H](CCN1CCC2(CC2)[C@H](O)C1)N1CCN(c2ccc(OC(F)(F)F)cc2)CCC1=O [Example 11] as the entry.
## Result 0.4

Value source: patent US8138175B2
